Provenance of the data: PubChem BioAssay

test: small-molecule binders of probe aInhba, primary screen, biochemical, small-molecule microarray, 635/667 nm fluorescence (AID 1148); conditions: higher = more signal;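 note: score merges 667nm spot fluorescence with signal-to-noise for antibody binding to printed compounds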
Use 0.07 as the dividing line for composite z-score, with the line itself on the Yes side and lower values as No.

input: Given `C=CC[C@@]1(C(=O)N2CCOCC2)N=C(c2ccc(OCCCO)cc2)O[C@@H]1c1ccccc1N=[N+]=[N-]` , state whether its composite z-score is at least 0.07.
output: Yes

input: Given `CCOC(=O)C[C@H]1[C@H](OC(=O)Cc2ccc3c(c2)OCO3)[C@@H](NC(=O)C2CCCCC2)c2cc(OCCCO)ccc2N1C(=O)Cc1ccc(OC)cc1` , state whether its composite z-score is at least 0.07.
output: No

input: Given `COCCCNC(=O)[C@@]1(C)c2ccccc2C(=O)N(Cc2cc(C(F)(F)F)cc(C(F)(F)F)c2)[C@H]1c1ccc(CO)cc1` , state whether its composite z-score is at least 0.07.
output: No

input: Given `CCOC(=O)[C@H]1C/C=C/C[C@H](C(=O)OCC)C(=O)O[C@H]2[C@@H](OC)O[C@H](CO)[C@@H](OC(=O)Nc3ccc4c(c3)OCO4)[C@@H]2OC1=O` , state whether its composite z-score is at least 0.07.
output: No

input: Given N#Cc1ccc(NN2C(C(O)C3CCCCC3)C=CC3C(=O)N(c4ccccc4)C(=O)C32)cc1 (stereo not given) , state whether its composite z-score is at least 0.07.
output: Yes

input: Given `NC(=O)NCC#Cc1ccc2c(c1)[C@]1(C(=O)N2)[C@H](C(=O)NC[C@H](O)c2ccccc2)[C@H]2C(=O)O[C@H](c3ccccc3)[C@H](c3ccccc3)N2[C@@H]1c1ccc(O)cc1` , state whether its composite z-score is at least 0.07.
output: Yes

input: Given `CC(C)(C)OC(=O)CC[C@@]1(C(=O)NCCN2CCOCC2)N=C(c2ccc(OCCCO)cc2)O[C@@H]1c1ccccc1` , state whether its composite z-score is at least 0.07.
output: Yes

input: Given COC(=O)c1ccc(C(O)C2C=CC3C(=O)N(c4ccccc4)C(=O)C3N2Nc2ccc(C#N)cc2)o1 (stereo not given) , state whether its composite z-score is at least 0.07.
output: No

input: Given CCOc1cc(C(O)C2C=CC3C(=O)N(c4ccccc4)C(=O)C3N2Nc2ccc([N+](=O)[O-])cc2)ccc1O (stereo not given) , state whether its composite z-score is at least 0.07.
output: No

input: Given `COC(=O)c1c(CC[C@@H](CO)NC(=O)N[C@@H](Cc2ccccc2)Cn2cc(C3(O)CCCCC3)nn2)oc(C(C)=O)c1C(=O)OC` , state whether its composite z-score is at least 0.07.
output: No

input: Given `COC(=O)[C@@]1(Cc2ccccc2N=[N+]=[N-])COC(c2ccc(OCCCO)cc2)=N1` , state whether its composite z-score is at least 0.07.
output: No

input: Given `O=C(NCc1ccccc1)[C@]1(CCS(=O)(=O)c2ccccc2)N=C(c2ccc(OCCCO)cc2)O[C@@H]1c1ccccc1` , state whether its composite z-score is at least 0.07.
output: Yes

input: Given Cc1cc(C)c(C(O)C2C=CC3C(=O)N(c4ccccc4)C(=O)C3N2Nc2ccc(C#N)cc2)c(C)c1 (stereo not given) , state whether its composite z-score is at least 0.07.
output: Yes

input: Given CS(=O)(=O)CCOC(=O)C1=CC(CCCO)=CC(c2cccs2)N(Cc2cc3c(cc2Br)OCO3)C=C1C(=O)OCCS(C)(=O)=O (stereo not given) , state whether its composite z-score is at least 0.07.
output: Yes
